test-details: small molecules captured by biotinylated probe aFST – biochemical, small-molecule microarray, fluorescence 635/667, stem cell growth factor project, primary screen (AID 1086);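 also: score merges 667 nm fluorescence with signal-to-noise of each printed compound spot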
run-conditions: higher = more signal
Kindly state composite z-score for each of the entries shown.
One number for each entry.

Q. Give the reported value of composite z-score for this record: C=CCC(OC(C)=O)[C@@H]1[C@@H](N(Cc2cccc3ccccc23)C(=O)Cc2ccc(F)cc2)c2cc(OCCCO)ccc2N1C(=O)Cc1ccc(OC)cc1 (some centres undefined)
A. 0.0417

Q. Give the reported value of composite z-score for this record: CC(C)C[C@@H]1NC(=O)[C@@H]2C[C@H](C(=O)NCc3ccc(F)cc3)[C@H](c3ccc(O)cc3)N2C1=O
A. -0.512

Q. Give the reported value of composite z-score for this record: C=CCC(OC(C)=O)[C@@H]1[C@@H](N(Cc2ccc(-c3ccccc3)cc2)C(=O)Cc2ccc(OC)cc2)c2cc(OCCCO)ccc2N1C(=O)c1ccc(-c2ccccc2)cc1 (some centres undefined)
A. 0.0321

Can you give me composite z-score for all of these, one by one?
1. Cc1ccc(S[C@]2(C(=O)NCC(C)C)CC(=O)N(C3CCCCC3)[C@@H]2c2ccc(CO)cc2I)cc1
2. COCCOC(=O)N1C(=O)[C@@]2(c3cc(C#Cc4ccc(OC)cc4)ccc31)[C@H](c1ccc(OCCO)cc1)N1[C@H](c3ccccc3)[C@H](c3ccccc3)OC(=O)[C@H]1[C@@H]2C(N)=O
3. NC(=O)NCC#Cc1ccc2c(c1)[C@]1(C(=O)N2)[C@H](c2ccc(OCCO)cc2)N2[C@H](c3ccccc3)[C@H](c3ccccc3)OC(=O)[C@H]2[C@@H]1C(=O)N1CCN(c2ncccn2)CC1
4. COCCCNC(=O)[C@]1(Cc2ccccc2CN=[N+]=[N-])N=C(c2ccc(OCCCO)cc2)O[C@@H]1c1ccccc1CN=[N+]=[N-]
5. CCCCC(CC)C(O)C1C=CC2C(=O)NC(=O)C2N1Nc1ccccn1 (centres undefined)
6. O=C1O[C@H](c2ccccc2)[C@H](c2ccccc2)N2[C@H]1[C@@H](C(=O)N1CCN(c3ncccn3)CC1)[C@]1(C(=O)Nc3ccc(C#CCCO)cc31)[C@H]2c1ccc(OCCO)cc1

A.
0.0997
0.851
-0.194
1.23
0.245
1.35

Can you give me composite z-score for all of these, one by one?
1. CC(C)NC(=O)[C@@]1(Cc2ccccc2I)c2ccccc2C(=O)N(Cc2ccccc2C(F)(F)F)[C@H]1c1ccc(CO)cc1
2. Cc1cc(C)c(C(O)C2C=CC3C(=O)N(c4ccccc4)C(=O)C3N2Nc2ccccc2)c(C)c1 (centres undefined)
3. COCCCNC(=O)[C@@]1(Cc2ccccc2CN=[N+]=[N-])N=C(c2ccc(OCCCO)cc2)O[C@H]1c1ccccc1N=[N+]=[N-]

A.
1: 0.0674; 2: 1.25; 3: 1.27

Can you give me composite z-score for all of these, one by one?
1. CCCN1C(=O)[C@@]2(Cc3ccccc3)N=C(c3ccc(OCCCO)cc3)O[C@H]2c2ccccc21
2. CC(C)c1ccc(NN2C(C(O)c3ccccn3)C=CC3C(=O)N(c4ccccc4)C(=O)C32)cc1 (centres undefined)

A.
[-0.0754, 1.49]

====

test-target: Left-right determination factor 2 (Homo sapiens) (UniProt O00292)
Sequence (O00292 whole entry, looked up): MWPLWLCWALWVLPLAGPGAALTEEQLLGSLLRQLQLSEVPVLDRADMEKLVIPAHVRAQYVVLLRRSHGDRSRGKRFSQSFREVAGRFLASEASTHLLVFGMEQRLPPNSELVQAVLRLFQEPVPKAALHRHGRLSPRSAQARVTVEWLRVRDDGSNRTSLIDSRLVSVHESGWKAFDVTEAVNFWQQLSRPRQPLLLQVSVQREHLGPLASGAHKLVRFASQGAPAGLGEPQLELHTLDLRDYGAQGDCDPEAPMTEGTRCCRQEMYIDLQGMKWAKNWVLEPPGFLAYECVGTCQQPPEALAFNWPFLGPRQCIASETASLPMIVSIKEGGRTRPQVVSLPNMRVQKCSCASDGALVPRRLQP
test-details: small molecules binding LEFTY2 protein – biochemical, small-molecule microarray, 635 nm fluorescence scan, primary screen (AID 1110)
run-conditions: higher = more signal
Kindly state composite z-score for each of the entries shown.
Give bare numbers.

Field: example entries. Status: answers known.
Q. Give the reported value of composite z-score for this record: COc1ccc(CCNC(=O)[C@@H]2c3ccccc3C(=O)N(Cc3ccccc3)[C@H]2c2ccc(CO)cc2)cc1
A. 0.117

Q. Give the reported value of composite z-score for this record: O=C1O[C@H](c2ccccc2)[C@H](c2ccccc2)N2[C@H]1[C@@H](C(=O)N1CCN(c3ncccn3)CC1)[C@]1(C(=O)Nc3ccc(C#CCCO)cc31)[C@H]2c1ccc(OCCO)cc1
A. 1.35

Q. Give the reported value of composite z-score for this record: NC(=O)NCC#Cc1ccc2c(c1)[C@]1(C(=O)N2)[C@H](c2ccc(OCCO)cc2)N2[C@H](c3ccccc3)[C@H](c3ccccc3)OC(=O)[C@H]2[C@@H]1C(=O)N1CCCCCCC1
A. 1.73

Q. Give the reported value of composite z-score for this record: COC(=O)C(CC#Cc1ccc2c(c1)[C@]1(C(=O)N2)[C@H](c2ccc(OCCO)cc2)N2[C@H](c3ccccc3)[C@H](c3ccccc3)OC(=O)[C@H]2[C@@H]1C(=O)O)C(=O)OC
A. 0.431

Q. Give the reported value of composite z-score for this record: CCCN1C(=O)[C@@]2(Cc3ccccc3)N=C(c3ccc(OCCCO)cc3)O[C@H]2c2ccccc21
A. 0.133

Moving on to another compound below.
Q. Give the reported value of composite z-score for this record: C=CCOC(=O)[C@@H]1[C@H]2C(=O)O[C@H](c3ccccc3)[C@H](c3ccccc3)N2[C@H](c2ccc(OCCOC(=O)[C@@H]3C[C@@H]4C(=O)N5CCC[C@H]5C(=O)N4[C@@H]3c3cccc(OCCO)c3)cc2)[C@@]12C(=O)Nc1ccc(I)cc12
A. 0.56
